# MEASUREMENT_DESCRIPTION: in vivo
# MEASUREMENT_SETUP: Sprague-Dawley, rat, po, 39.2 g/kg/day, t 1/2
MEASURED_PROPERTY: half-life (h)
Your answer should be a plain number; it is taken to be in h.

Record `C=C1[C@H]2C[C@@]3([C@@H]1O)[C@@H](CC2=O)[C@]12[C@@H]4C[C@H]3[C@H]1N(CC)C[C@]4(C)CC[C@@H]2O` . Reported half-life: 2.64

----------
# MEASUREMENT_DESCRIPTION: PK study of SM components in plasma of AIA rats by UPLC-MS/MS (MG vs MPS group)
# MEASUREMENT_SETUP: MPS group: AIA rats, oral PS 9.8 g crude drug/kg/day 21 days, then oral SM 39.2 g crude drug/kg; plasma; mean ± SEM
MEASURED_PROPERTY: T max (min)
Enter your answer as a number in min; do not include the unit.

Below, 2 compounds whose answers are already recorded.
CCN1C[C@]2(COC)CC[C@H](OC)[C@]34C1[C@H](C[C@H]23)[C@@]1(O)C[C@H](OC)[C@H]2C[C@@H]4[C@@H]1[C@H]2O [Talatizamine]: 17.5
COC[C@@]12CC[C@H](OC)[C@]34C([C@H]([C@H](OC)[C@H]13)[C@]1(O)[C@H]3[C@@H](OC(=O)c5ccccc5)[C@](O)(C[C@H]34)[C@@H](OC)[C@@H]1O)N(C)C2 [Benzoylhypaconine]: 4.98

Read the next record carefully.
Looking up COc1ccc(-c2coc3cc(O[C@@H]4O[C@H](CO)[C@@H](O)[C@H](O)[C@H]4O)ccc3c2=O)cc1O [Calycosin-7-glycoside] , I see its T max listed as 4.98

----------
Each entry below carries its recorded AUC 0-t.
# MEASUREMENT_DESCRIPTION: PK study of SM components in plasma of AIA rats by UPLC-MS/MS (MG vs MPS group)
# MEASUREMENT_SETUP: MG group: AIA rats, saline 21 days, then oral SM 39.2 g crude drug/kg; plasma; mean ± SEM
Write the answer as a number in ng·h/mL, unit excluded.

Observe how each entry below is paired with its result.
C[C@]12C[C@@H](O)[C@@H]3C[C@@]1(O[C@@H]1O[C@H](CO)[C@@H](O)[C@H](O)[C@H]1O)[C@@]3(COC(=O)c1ccccc1)C(=O)O2 [Albiflorin]: 424.990
COC[C@]12CN(C)C3[C@@H]4[C@H](OC)[C@H]1[C@@]3([C@@H](OC)C[C@H]2O)[C@@H]1C[C@@]2(O)[C@H](OC(=O)c3ccccc3)[C@@H]1[C@]4(O)[C@@H](O)[C@@H]2OC [Benzoylmesaconitine]: 21.413
CCN1C[C@]2(COC)CC[C@H](O)[C@]34C1[C@H]([C@H](OC)[C@H]23)[C@@]1(O)C[C@H](OC)[C@H]2C[C@@H]4[C@@H]1[C@H]2O [Neoline]: 7.417
CCN1C[C@]2(COC)[C@H](O)C[C@H](OC)[C@@]34[C@@H]5C[C@@]6(O)[C@H](OC(=O)c7ccccc7)[C@@H]5[C@@](O)([C@@H]([C@H](OC)[C@H]23)[C@@H]14)[C@@H](O)[C@@H]6OC [Benzoylaconine]: 0.764

# AUC 0-t (compound: COc1ccc(-c2coc3cc(O)ccc3c2=O)cc1 [Formononetin] ) is 15.278
